- Tested System: Nonstructural protein 1 (Influenza A virus)
- Sequence (Q194T2 whole entry): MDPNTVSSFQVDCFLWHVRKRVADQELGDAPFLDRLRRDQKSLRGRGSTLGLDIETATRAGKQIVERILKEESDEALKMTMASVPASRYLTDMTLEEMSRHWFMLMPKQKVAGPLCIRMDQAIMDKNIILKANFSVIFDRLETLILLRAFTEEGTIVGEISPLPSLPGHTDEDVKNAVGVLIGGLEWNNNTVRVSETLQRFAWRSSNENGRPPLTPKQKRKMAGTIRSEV
- Format: functional, Influenza A virus (A/California/07/2009(H1N1))
The source made the active and inactive calls.

>  <Structure Notation>
C/C(=N\NC(=O)c1cccc(Br)c1)c1ccccn1

>  <IC50>
1.67 µM (active)

$$$$
>  <Structure Notation>
COc1ccc(-n2nc([N+](=O)[O-])c(NCCC3=CCCCC3)[n+]2[O-])cc1

>  <IC50>
41.3 µM (active)

$$$$
>  <Structure Notation>
CCN(CC)c1ccc(NC(=O)CN2CCN(CC(=O)Nc3ccccc3OC)CC2)cc1

>  <IC50>
79.6 µM (active)

$$$$
>  <Structure Notation>
CCOC(=O)c1c(CN(C)C)oc2cc(CN(C)C)c(O)c(CSc3ccccc3)c12

>  <IC50>
> 100 µM (active)

$$$$
